# Tested on: Artemia salina
# ASSAY NOTES: Toxicity in Artemia salina larvae after 24 hrs by microscopic analysis
# Format: functional
Entries whose LC50 is below 20 µg/mL take 1; entries at or above 20 µg/mL take -1.

Qu. Please let me know if CC(=O)N1N=C([C@H]2CC[C@H]3[C@@H]4CCC5=CC(=O)C=C[C@]5(C)[C@H]4CC[C@]23C)CC1c1ccccc1Cl (stereo partly specified) shows LC50 below 20 µg/mL.
Ans. -1

Qu. Please let me know if COc1ccccc1C1CC([C@H]2CC[C@H]3[C@@H]4CCC5=CC(=O)C=C[C@]5(C)[C@H]4CC[C@]23C)=NN1C(C)=O (stereo partly specified) shows LC50 below 20 µg/mL.
Ans. -1

Qu. Please let me know if CC(=O)N1N=C([C@H]2CC[C@H]3[C@@H]4CCC5=C(Cl)C(=O)C=C[C@]5(C)[C@H]4CC[C@]23C)CC1c1ccc([N+](=O)[O-])cc1 (stereo partly specified) shows LC50 below 20 µg/mL.
Ans. 1

Qu. Please let me know if COc1ccc(C2CC([C@H]3CC[C@H]4[C@@H]5CCC6=C(Cl)C(=O)C=C[C@]6(C)[C@H]5CC[C@]34C)=NN2C(C)=O)cc1 (mixture of isomers) shows LC50 below 20 µg/mL.
Ans. -1

Qu. Please let me know if CC(=O)N1N=C([C@H]2CC[C@H]3[C@@H]4CCC5=CC(=O)C=C[C@]5(C)[C@H]4CC[C@]23C)CC1c1ccccc1[N+](=O)[O-] (stereo partly specified) shows LC50 below 20 µg/mL.
Ans. -1

Qu. Please let me know if CC(=O)N1N=C([C@H]2CC[C@H]3[C@@H]4CCC5=CC(=O)C=C[C@]5(C)[C@H]4CC[C@]23C)CC1c1ccc([N+](=O)[O-])cc1 (stereo partly specified) shows LC50 below 20 µg/mL.
Ans. -1

###

# Test system: NCI-H460
# ASSAY NOTES: Cytotoxicity against human NCI-H460 cells after 48 hrs by MTT assay
# Assay type: functional, cell-based
# PROTOCOL CONDITIONS: NCI-H460, 48 h
Record form. Attribute: IC50. Fill in for each entry.
The figure you give is taken to be in µg/mL; do not add the unit.

Record COc1ccc(C2CC([C@H]3CC[C@H]4[C@@H]5CCC6=C(Cl)C(=O)C=C[C@]6(C)[C@H]5CC[C@]34C)=NN2C(C)=O)cc1 (mixture of isomers) . Reported IC50: 17.9

Record CC(=O)N1N=C([C@H]2CC[C@H]3[C@@H]4CCC5=C(Cl)C(=O)C=C[C@]5(C)[C@H]4CC[C@]23C)CC1c1ccccc1Cl (mixture of isomers) . Reported IC50: 10.3

Record CC(=O)N1N=C([C@H]2CC[C@H]3[C@@H]4CCC5=C(Cl)C(=O)C=C[C@]5(C)[C@H]4CC[C@]23C)CC1c1ccccc1[N+](=O)[O-] (stereo partly specified) . Reported IC50: 14.8

Record CC(=O)[C@H]1CC[C@H]2[C@@H]3CCC4=C(Cl)C(=O)C=C[C@]4(C)[C@H]3CC[C@]12C . Reported IC50: 26.7

Record CC(=O)N1N=C([C@H]2CC[C@H]3[C@@H]4CCC5=C(Cl)C(=O)C=C[C@]5(C)[C@H]4CC[C@]23C)CC1c1ccccc1 (stereo partly specified) . Reported IC50: 13.1
